# assay-target: system Xc^− (Homo sapiens)
# Sequence (Q9UPY5 1-501): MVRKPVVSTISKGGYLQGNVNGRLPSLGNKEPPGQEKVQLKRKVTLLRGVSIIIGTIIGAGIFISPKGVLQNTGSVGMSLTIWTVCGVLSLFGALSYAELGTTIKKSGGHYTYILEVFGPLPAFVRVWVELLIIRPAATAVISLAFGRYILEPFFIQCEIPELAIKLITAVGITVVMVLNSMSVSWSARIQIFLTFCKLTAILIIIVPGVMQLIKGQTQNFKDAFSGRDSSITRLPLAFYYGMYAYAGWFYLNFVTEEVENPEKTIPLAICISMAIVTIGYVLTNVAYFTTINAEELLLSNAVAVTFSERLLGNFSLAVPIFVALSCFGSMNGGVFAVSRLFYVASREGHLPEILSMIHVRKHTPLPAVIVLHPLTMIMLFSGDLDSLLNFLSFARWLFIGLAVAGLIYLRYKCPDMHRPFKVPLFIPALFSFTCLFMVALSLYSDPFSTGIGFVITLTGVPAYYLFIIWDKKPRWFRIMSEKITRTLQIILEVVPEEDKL
# Sequence (P08195 1-529 partner): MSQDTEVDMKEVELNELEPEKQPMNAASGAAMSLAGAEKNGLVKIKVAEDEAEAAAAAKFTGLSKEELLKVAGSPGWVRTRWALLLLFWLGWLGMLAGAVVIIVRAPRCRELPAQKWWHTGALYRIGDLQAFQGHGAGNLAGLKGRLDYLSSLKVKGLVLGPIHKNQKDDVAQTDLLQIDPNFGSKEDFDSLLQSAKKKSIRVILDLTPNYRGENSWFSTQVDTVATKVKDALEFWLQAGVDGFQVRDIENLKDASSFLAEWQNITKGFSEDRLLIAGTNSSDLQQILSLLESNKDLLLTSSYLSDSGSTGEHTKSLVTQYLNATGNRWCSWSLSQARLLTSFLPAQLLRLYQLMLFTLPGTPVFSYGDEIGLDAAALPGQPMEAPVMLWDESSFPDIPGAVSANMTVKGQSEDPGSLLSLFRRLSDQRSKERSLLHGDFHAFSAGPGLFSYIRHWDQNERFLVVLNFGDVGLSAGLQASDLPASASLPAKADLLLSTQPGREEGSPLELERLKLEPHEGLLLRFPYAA
# protocol-description: Cystine-induced glutamate release assay
# Type: cell-based
# Design: endogenous in cells; host or cells: H4 cells
# assay-conditions: H4 cells, sodium-free HEPES buffer, 50 μM L-Cystine, 2 hours, Amplex Red glutamate readout; read-out: pIC50 Cystine-induced glutamate release assay (converted)
readout: IC50

## Input For the compound shown here, COc1ccc2c(c1)N(CC(=O)Nc1ccc(C(F)F)cc1)C(=O)C(C)c1ncccc1-2 (stereo not shown) [#305] , give the reported IC50.
## Output 39.8 to 100 nM

Field: next compound
## Input For the compound shown here, CC1C(=O)N(CC(=O)Nc2ccc(Cl)c(F)c2)c2cc(Cl)cc(F)c2-c2ncncc21 (single isomer, unassigned) [#418] , give the reported IC50.
## Output 39.8 to 100 nM

// provenance: patent US20260217708A1
